Catalogue of EC50 readings, one per entry.
- Tested on: panel of cancer cell lines
- PROCEDURE TEXT: Cell viability (CellTiter-Glo) dose-response across cancer cell line panel;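 also: after 72 h compound incubation with CellTiter-Glo ATP readout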
- Assay type: cell-based, human
- TEST SETTINGS: Homo sapiens, MOLT-16, MOLT-16
# output: numeric value plus its unit

CC(C)C[C@H](NC(=O)[C@H](Cc1ccccc1)NC(=O)c1cnccn1)B(O)O :: 1.73 nM
COCc1ccccc1NCc1ccc([C@H]2[C@@H](O)CCCc3cncn32)c(-c2ccccc2Cl)c1 :: 341 nM

Attention now shifts to the item below.
State its EC50 for this compound: NS(=O)(=O)OC[C@@H]1C[C@@H](n2ccc3c(N[C@H]4CCc5ccccc54)ncnc32)C[C@@H]1O
134 nM
